Across several publications, the following pIC50 results were reported for Melatonin receptor type 1B (Homo sapiens).
pIC50: −log10 of the molar value.

1) CCc1ccc2nn(C)cc2c1C1CC1CNC(C)=O (stereo not shown) = ≥ 7.00
2) COc1ccc2c(c1)C(C1CCN(C(C)=O)CC1)CC2 (single isomer, unassigned; (-)) = > 8.00
3) CCC(C)C(=O)N1CCC(C2CCc3ccc(OC)cc32)CC1 (stereo not shown) = > 8.00
4) CCC(=O)NCCc1cnn2ccc3c(c12)CCO3 = ≥ 7.00
5) CCCC(=O)N1CCC(C2CCc3cc(F)c(OC)cc32)CC1 (stereo not shown) = > 8.00

In: Fill in: pIC50 of CCC(=O)NCCc1c(-c2ccccc2)nn2ccc3c(c12)CCO3 is ___
Out: ≥ 7.00

In: What about this molecule? CC(=O)NCC=C1CCc2ccc3nn(C)cc3c21
Out: ≥ 7.00

In: What about this molecule? COCC(=O)N1CCC(C2CCc3ccc(OC)cc32)CC1 (single isomer, unassigned; (-))
Out: > 8.00

In: What about this molecule? CC(=O)NCC1CC1c1c(C#N)ccc2nn(C)cc12 (stereo not shown)
Out: ≥ 7.00

In: What about this molecule? CCC(=O)NCC[C@H]1CCc2ccc3nc(C)oc3c21
Out: 8.21

###

pIC50: −log10 of the molar value.
Across several publications, the following pIC50 results were reported for Melatonin receptor type 1B (Homo sapiens).

1. CCC(=O)NCCC1=CCc2cnc3c(c21)CCO3 = ≥ 7.00
2. CC(=O)NCC[C@H]1CCc2ccc3nc(C)sc3c21 = 8.07

In: Fill in: pIC50 of COc1ccc2nn(C)cc2c1C1CC1CNC(C)=O (stereo not drawn) is ___
Out: ≥ 7.00

In: What about this compound? COc1cc2c(cc1F)CCC2C1CCN(C(C)=O)CC1 (stereo not drawn)
Out: > 8.00

###

Across several publications, the following pIC50 results were reported for UniProt P49286.
pIC50: −log10 of the molar value.

These solved cases illustrate the format of a correct answer.
1. COc1ccc2c(c1)C(C1CCN(C(=O)C3CC3)CC1)CC2 (stereo not shown) = > 8.00
2. CC(=O)NCC=C1CCc2ccc3nc(C)sc3c21 = 9.66
3. CC(=O)NCCC1CCc2ccn3nc(C)c(C)c3c21 (stereo not shown) = ≥ 7.00
4. CCC(=O)N1CCC(C2CCc3cc(F)c(OC)cc32)CC1 (stereo not shown) = > 8.00
5. CC(=O)NCC[C@@H]1CCc2ccc3nn(C)cc3c21 = ≥ 7.00

In: Fill in: pIC50 of CCNC(=O)N1CCC(C2CCc3ccc(CC)cc32)CC1 (stereo not shown) is ___
Out: > 8.00

###

Across several publications, the following pIC50 results were reported for Melatonin receptor type 1B (Homo sapiens).
pIC50: −log10 of the molar value.

1) CCc1cc2c3c(ccn2n1)CCC3CCNC(C)=O (stereo not shown) = ≥ 7.00
2) O=C(C1CC1)N1CCC(C2CCc3ccc(F)cc32)CC1 (stereo not shown) = > 8.00
3) CC(=O)NCC[C@@H]1CCc2ccc3nc(C)sc3c21 = 9.92

In: Fill in: pIC50 of CCC(=O)NCC=C1CCc2ccc3nn(C)cc3c21 is ___
Out: ≥ 7.00

In: What about this compound? O=C(C1CC1)N1CCC(C2CCc3ccc(O)cc32)CC1 (stereo not shown)
Out: 7.00 to 8.00

###

Across several publications, the following IC50 results were reported for Melatonin receptor type 1B (Homo sapiens, UniProt P49286).

These solved cases illustrate the format of a correct answer.
1) CC(=O)NCC1CC1c1cccc2nnsc12 (centres unmarked) = ≤ 100 nM
2) CC(=O)NCCC1CCc2ccc3nn(C)cc3c21 (centres unmarked) = ≤ 100 nM

In: Fill in: IC50 of CC(=O)NCC[C@@H]1CCc2ccc3nn(C)c(Cl)c3c21 is ___
Out: ≤ 100 nM

In: What about this compound? COc1cccc(CCCOc2ccc3c(c2)C(C2CCN(C(=O)C4CC4)CC2)CC3)c1 (centres unmarked)
Out: 10 to 100 nM

In: What about this compound? CCC(=O)NCCC1CCc2ccc3nc(C)oc3c21 (centres unmarked)
Out: 0.28 nM

In: What about this compound? CC(=O)NCCC1CCc2ccc3nc(C)oc3c21 (centres unmarked)
Out: 0.31 nM

In: What about this compound? COc1ccc2c(c1)C(C1CCN(C(=O)C(F)(F)F)CC1)CC2 (centres unmarked)
Out: < 10 nM

In: What about this compound? Cc1cc2c([C@H]3C[C@@H]3CNC(=O)C3CC3)cccn2n1
Out: ≤ 100 nM

In: What about this compound? CCc1nn2ccc3c(c2c1C(C)CNC(C)=O)CCO3 (centres unmarked)
Out: ≤ 100 nM

In: What about this compound? CNC(=O)N1CCC(C2CCc3ccccc32)CC1 (centres unmarked)
Out: < 10 nM

In: What about this compound? CC(=O)NCC1CC1c1cccc2nscc12 (centres unmarked)
Out: ≤ 100 nM

In: What about this compound? COc1nc2ccc3c(c2o1)C(CCNC(C)=O)CC3 (centres unmarked)
Out: 0.28 nM

In: What about this compound? CCC(=O)NCCC1CCc2ccc3nn(C)cc3c21 (centres unmarked)
Out: ≤ 100 nM

In: What about this compound? CNC(=O)N1CCC(C2CCc3ccc(OC)cc32)CC1 (single isomer, unassigned; (-))
Out: < 10 nM

###

Across several publications, the following pIC50 results were reported for Melatonin receptor type 1B (Homo sapiens).
pIC50: −log10 of the molar value.

1. CCCCCCCOc1ccc2c(c1)C(C1CCN(C(=O)NCC)CC1)CC2 (stereo not shown) = > 8.00
2. O=C(C1CC1)N1CCC(C2CCc3ccccc32)CC1 (stereo not shown) = > 8.00
3. CC(=O)NCC1CC1c1c(-c2ccccc2)ccc2nn(C)cc12 (stereo not shown) = ≥ 7.00

In: Fill in: pIC50 of CCCC(=O)NC[C@@H]1C[C@H]1c1cccn2nc(C)cc12 (relative stereo) is ___
Out: ≥ 7.00

In: What about this molecule? CCNC(=O)N1CCC(C2CCc3ccc(F)cc32)CC1 (stereo not shown)
Out: > 8.00

In: What about this molecule? CC(=O)NCC[C@@H]1CCc2ccc3nn(C)c(F)c3c21
Out: ≥ 7.00

In: What about this molecule? CC(=O)NCCC1CCc2ccc3ncoc3c21 (stereo not shown)
Out: 9.51

In: What about this molecule? CC(=O)NCCC1CCc2ccc3nn(C)c(C)c3c21 (stereo not shown)
Out: ≥ 7.00

###

Across several publications, the following IC50 results were reported for Melatonin receptor type 1B (Homo sapiens).

These solved cases illustrate the format of a correct answer.
1. CC(=O)NCC1CC1c1c(-c2cccnc2)ccc2nn(C)cc12 (centres unmarked) = ≤ 100 nM
2. CCC(=O)NCCC1CCc2ccn3nccc3c21 (centres unmarked) = ≤ 100 nM
3. COc1ccc2c(c1)C(C1CCN(C(=O)c3ccc(C)s3)CC1)CC2 (centres unmarked) = 10 to 100 nM
4. CCC(=O)NC[C@H]1C[C@@H]1c1cccc2nn(C)cc12 = ≤ 100 nM
5. CCC(=O)NCCc1c(-c2ccc(F)cc2)nn2ccc3c(c12)CCO3 = ≤ 100 nM
6. CNC(=S)N1CCC(C2CCc3ccc(OC)cc32)CC1 (centres unmarked) = < 10 nM
7. CCNC(=O)N1CCC(C2CCc3ccccc32)CC1 (centres unmarked) = 10 to 100 nM
8. CCC(=O)NCCc1c(-c2ccccc2)nn2ccc3occc3c12 = ≤ 100 nM
9. CCn1cc2c(C3CC3CNC(C)=O)cccc2n1 (centres unmarked) = ≤ 100 nM
10. CC(=O)NCC1CC1c1c(Cl)ccc2nn(C)cc12 (centres unmarked) = ≤ 100 nM

Now for a further compound.
In: Fill in: IC50 of CC(=O)NCCc1cnn2ccc3c(c12)CCO3 is ___
Out: ≤ 100 nM

###

Across several publications, the following IC50 results were reported for Melatonin receptor type 1B (Homo sapiens).

These solved cases illustrate the format of a correct answer.
1) CCC(=O)NCCC1CCc2c(F)cc3nn(C)cc3c21 (centres unmarked) = ≤ 100 nM
2) CC(=O)NC[C@@H]1C[C@H]1c1c(F)ccc2nn(C)cc12 = ≤ 100 nM
3) CC(=O)NCCC1CCc2ccc3nc(CCCCc4ccccc4)oc3c21 (centres unmarked) = 0.091 nM
4) CCC(=O)NC[C@@H]1C[C@H]1c1c(F)ccc2nn(C)cc12 (relative stereo) = ≤ 100 nM
5) COc1ccc2c(c1)C(C1CCN(C(=O)c3cccs3)CC1)CC2 (centres unmarked) = < 10 nM
6) CCCC(=O)N1CCC(C2CCc3ccc(F)cc32)CC1 (centres unmarked) = < 10 nM
7) CC(=O)NCCc1c(-c2ccc(F)cc2)nn2ccc3c(c12)CCO3 = ≤ 100 nM

Now for a further compound.
In: Fill in: IC50 of COc1ccc2c(c1)C(C1CCN(C=O)CC1)CC2 (centres unmarked) is ___
Out: < 10 nM
